Sourced from patent US10213415B2

# assay target: delta opioid receptor (Rattus norvegicus)
# Construct: from tissue; host or cells: forebrain of male Wistar rats
# Sequence (P33533 whole entry): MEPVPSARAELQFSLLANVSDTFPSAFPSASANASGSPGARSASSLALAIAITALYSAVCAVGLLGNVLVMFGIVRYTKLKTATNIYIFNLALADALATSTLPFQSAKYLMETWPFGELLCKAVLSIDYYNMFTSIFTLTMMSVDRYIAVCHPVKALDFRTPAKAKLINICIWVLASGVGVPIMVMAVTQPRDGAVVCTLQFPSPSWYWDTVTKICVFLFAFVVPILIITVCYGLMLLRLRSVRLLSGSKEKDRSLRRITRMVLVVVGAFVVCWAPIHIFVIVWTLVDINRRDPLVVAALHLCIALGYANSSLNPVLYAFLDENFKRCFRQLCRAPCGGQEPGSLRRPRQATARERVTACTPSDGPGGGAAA
# procedure summary: Rat Brain Delta Opioid Receptor Binding Assay-Version 1a ([3H]naltrindole)
# measurement parameters: rat forebrain membranes, 0.1 nM [3H]naltrindole; margin of error 10-20%; read-out: r Ki δ Ver. 1a
result type: Ki (nM)
Give bare numbers, in nM.

>>> result("COc1ccc(CN(C(=O)[C@@H](N)Cc2c(C)cc(O)cc2C)[C@@H](C)c2nc(-c3ccccc3)c[nH]2)cc1C(=O)Nc1ccc(C(=O)O)cc1 [Cpd 308]")
0.48
>>> result("Cc1cc(O)cc(C)c1C[C@H](N)C(=O)N(Cc1cccc(C(=O)O)c1)[C@@H](C)c1nc(-c2ccccc2)c[nH]1 [Cpd 48]")
0.24
>>> result("COc1ccc(CN(C(=O)[C@@H](N)Cc2c(C)cc(O)cc2C)[C@@H](C)c2nc(-c3ccccc3)c[nH]2)cc1C(=O)Nc1cccc(C(=O)O)c1 [Cpd 306]")
0.18
>>> result("COC(=O)c1ccc(CN(C(=O)[C@@H](N)Cc2c(C)cc(C(N)=O)cc2C)[C@@H](C)c2nc(-c3ccccc3)c[nH]2)o1 [Cpd 257]")
14
>>> result("COC(=O)c1ccc(CN(C(=O)[C@@H](N)Cc2ccc(C(N)=O)cc2)[C@@H](C)c2nc(-c3ccccc3)c[nH]2)o1 [Cpd 303]")
24.5

Quick batch: Ki for everything below.
1. C[C@@H](c1nc(-c2ccccc2)c[nH]1)N(Cc1ccc(C(=O)O)o1)C(=O)[C@@H](N)Cc1ccc(C(N)=O)cc1 [Cpd 304]
2. COc1ccc(CN(C(=O)[C@@H](N)Cc2c(C)cc(O)cc2C)[C@@H](C)c2nc(-c3ccccc3)c[nH]2)cc1C(=O)Nc1ccccc1 [Cpd 305]
3. COc1ccc(CN(C(=O)[C@@H](N)Cc2c(C)cc(O)cc2C)[C@@H](C)c2nc(-c3ccccc3)c[nH]2)cc1-c1nnn[nH]1 [Cpd 307]

1. 119
2. 1.24
3. 0.07
